measurement-description: TOR pathway RPL19A-GFP modulators, concentration series – cell-based, S. cerevisiae, flow cytometry, MLPCN hits, dose response (AID 2740);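 further: background is signal of the same compound in parental non-GFP s288c yeast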
run-conditions: S. cerevisiae RPL19A-GFP strain, flow cytometry fluorescence, 3 h; at 33 µM (top of the series)
Activity calls are given as the source filed them.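 How the source made its calls: active means compounds whose fitted half-maximal concentration for changing the GFP signal is at or below a set limit; inactive means the rest.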
quantity-name: GFP fluorescence, lower = active (kMESF (background-subtracted))

Known GFP fluorescence, lower = active (kMESF (background-subtracted)) results, listed for orientation:
>  <compound>
O=C(CS(=O)c1ccccc1[N+](=O)[O-])Oc1ccc(Br)cc1 (stereo not drawn)

>  <result>
39.1 (inactive)

$$$$
>  <compound>
Cc1cc(NC(=O)c2cccnc2Cl)ccc1NC(=O)c1cc2ccccc2o1

>  <result>
39.6 (inactive)

$$$$
>  <compound>
COc1cc(NC(=O)c2cccc(C)c2)ccc1NC(=O)c1cc2ccccc2o1

>  <result>
39.6 (inactive)

$$$$
>  <compound>
N#C/C(=C\c1ccccn1)c1nc2ccccc2s1

>  <result>
54.2 (inactive)

$$$$
>  <compound>
CCOC(=O)CS(=O)(=O)c1nc(-c2ccc(F)cc2)cc(C(F)(F)F)n1

>  <result>
46.7 (inactive)

$$$$

Batch: GFP fluorescence, lower = active (kMESF (background-subtracted)) for all items listed.
1. CN1C(=O)/C(=N\OC(=O)c2cccc3ccccc23)c2ccccc21
2. Cc1ccc(C(=O)O/N=C(\N)Cc2cccs2)c(Cl)c1
3. O=c1[nH]c(-c2ccc(Cl)cc2)cs1
4. Cc1sc(/C=C2\C(=O)ON=C2c2ccccc2)cc1Br
5. O=C1c2cccc3c([N+](=O)[O-])ccc(c23)C(=O)N1CCc1ccccn1

Outgoing:
1. 42.9 (inactive)
2. 38.5 (inactive)
3. 41.6 (inactive)
4. 45 (inactive)
5. 47.1 (inactive)

Please go through the list and note GFP fluorescence, lower = active (kMESF (background-subtracted)) for each compound.
1. O=C(Nc1nc(-c2ccccn2)cs1)C1COc2ccccc2O1 (stereo not drawn)
2. O=C(Nc1ccccc1)ON=C1CCCC1

Outgoing:
1. 21.1 (inactive)
2. 42.1 (inactive)

Provide GFP fluorescence, lower = active (kMESF (background-subtracted)) values for the following items, in order.
1. CC(=O)N(C(C)=O)c1ncnc2c1c(-c1ccc(Cl)cc1)nn2C(C)(C)C
2. Oc1ccc(N=Nc2ccccc2)o1
3. Cc1ccc(N2C(=O)C(Cl)=C(Nc3c(C)n(C)n(-c4ccccc4)c3=O)C2=O)cc1
4. O=C(/C=C/c1ccc(F)cc1)NC(=S)NNC(=O)c1cnccn1

Outgoing:
42.9 (inactive)
42.3 (inactive)
39 (inactive)
36.8 (inactive)

# per-item lookup of GFP fluorescence, lower = active (kMESF (background-subtracted)); items listed below
1. CC1(c2ccccc2)ON(c2ccccc2C(F)(F)F)C1=O (stereo not drawn)
2. O=C1ON=C(c2ccccc2)/C1=C/c1ccco1

Outgoing:
1. 40 (inactive)
2. 28.4 (inactive)
